Measured values drawn from patent US11999715B2 for this set.

Target: ASK1/MAP3K5 (Homo sapiens, UniProt Q99683)
Sequence (Q99683 whole entry): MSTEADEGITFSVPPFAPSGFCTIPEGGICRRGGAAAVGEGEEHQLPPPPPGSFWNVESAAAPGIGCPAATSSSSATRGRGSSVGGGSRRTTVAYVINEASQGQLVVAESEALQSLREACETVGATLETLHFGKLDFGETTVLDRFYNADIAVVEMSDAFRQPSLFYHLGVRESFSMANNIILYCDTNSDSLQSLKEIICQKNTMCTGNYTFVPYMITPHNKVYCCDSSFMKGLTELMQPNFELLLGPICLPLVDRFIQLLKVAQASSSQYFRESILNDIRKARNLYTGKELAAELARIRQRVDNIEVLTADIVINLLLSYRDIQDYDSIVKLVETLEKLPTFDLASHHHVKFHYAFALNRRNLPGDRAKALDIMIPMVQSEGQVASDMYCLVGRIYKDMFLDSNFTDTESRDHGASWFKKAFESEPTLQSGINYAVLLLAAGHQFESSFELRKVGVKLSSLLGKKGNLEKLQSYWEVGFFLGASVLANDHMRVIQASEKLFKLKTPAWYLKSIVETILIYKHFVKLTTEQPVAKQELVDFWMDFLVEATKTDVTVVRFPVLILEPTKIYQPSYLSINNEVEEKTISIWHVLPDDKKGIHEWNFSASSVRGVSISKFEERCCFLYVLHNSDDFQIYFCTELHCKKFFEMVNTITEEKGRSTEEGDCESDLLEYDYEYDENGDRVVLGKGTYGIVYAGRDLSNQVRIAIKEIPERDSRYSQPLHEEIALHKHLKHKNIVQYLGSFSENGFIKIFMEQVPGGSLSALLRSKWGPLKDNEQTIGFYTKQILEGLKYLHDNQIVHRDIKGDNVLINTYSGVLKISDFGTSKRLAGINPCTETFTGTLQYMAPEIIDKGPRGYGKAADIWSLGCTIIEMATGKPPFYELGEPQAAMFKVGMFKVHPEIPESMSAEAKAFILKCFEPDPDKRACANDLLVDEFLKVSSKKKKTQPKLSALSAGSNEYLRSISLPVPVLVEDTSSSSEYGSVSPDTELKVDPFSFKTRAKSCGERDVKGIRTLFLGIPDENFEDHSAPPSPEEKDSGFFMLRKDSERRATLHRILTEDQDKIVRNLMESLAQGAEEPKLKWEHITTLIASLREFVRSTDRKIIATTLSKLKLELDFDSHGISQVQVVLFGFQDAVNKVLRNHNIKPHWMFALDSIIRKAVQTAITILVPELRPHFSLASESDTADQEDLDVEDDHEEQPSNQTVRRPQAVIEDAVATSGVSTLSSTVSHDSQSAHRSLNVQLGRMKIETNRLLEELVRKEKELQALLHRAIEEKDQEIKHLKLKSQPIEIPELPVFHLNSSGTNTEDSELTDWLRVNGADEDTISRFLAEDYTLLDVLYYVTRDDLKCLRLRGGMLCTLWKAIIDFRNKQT
Experiment: ASK1/MAP3K5 kinase assay by Reaction Biology Corp. (headed ASK1 TR-FRET Assay)
Format: biochemical
Conditions: 20 μM myelin basic protein, 10 μM ATP, class symbols
Experimental: Example 111: Brief Description of ASK1 TR-FRET Assay The protein kinase inhibitory activity of the compounds described herein were tested using the ASK1/MAP3K5 assay by Reaction Biology Corp. (Malvern, PA). The assay procedure follows (and is also available on the Reaction Biology Corp. website). […]
Entries and their measured IC50 follow.

Here are 3 compounds together with their reported answers.
[
  {
    "Compound": "CC(C)n1cnnc1-c1cccc(NC(=O)c2cn(-c3cncc(O)c3)nc2C(F)F)n1",
    "Endpoint Value": "≤ 0.1 µM"
  },
  {
    "Compound": "COc1cncc(-n2cc(C(=O)Nc3cccc(-c4nncn4C(C)C)n3)c(C(F)F)n2)c1",
    "Endpoint Value": "≤ 0.1 µM"
  },
  {
    "Compound": "CCOc1nn(C)cc1C(=O)Nc1cccc(-c2nncn2C(C)C)n1",
    "Endpoint Value": "≤ 0.1 µM"
  }
]

For C[C@H](n1cnnc1-c1cccc(NC(=O)c2cn(C)nc2C(F)F)n1)C(F)(F)F the compound record lists IC50 as 1 to 10 µM

For COc1nn(C)cc1C(=O)Nc1cccc(-c2cncn2C2CC2)c1 the compound record lists IC50 as 1 to 10 µM

For COc1nn(Cc2ccccc2)cc1C(=O)Nc1cccc(-c2nncn2C(C)C)n1 the compound record lists IC50 as ≤ 0.1 µM

For COc1nn(CCN2CCOCC2)cc1C(=O)Nc1cccc(-c2nncn2C(C)C)n1 the compound record lists IC50 as ≤ 0.1 µM

For Cc1cncc(-n2cc(C(=O)Nc3cccc(-c4nncn4C(C)C)n3)c(C(F)F)n2)c1 the compound record lists IC50 as ≤ 0.1 µM

----------
Molecular target: ASK1/MAP3K5 (Homo sapiens, UniProt Q99683)
Test: ASK1/MAP3K5 kinase assay by Reaction Biology Corp. (headed ASK1 TR-FRET Assay)
Assay type: biochemical
Details: 20 μM myelin basic protein, 10 μM ATP, class symbols
Description: Example 111: Brief Description of ASK1 TR-FRET Assay The protein kinase inhibitory activity of the compounds described herein were tested using the ASK1/MAP3K5 assay by Reaction Biology Corp. (Malvern, PA). The assay procedure follows (and is also available on the Reaction Biology Corp. website). […]
Endpoint: IC50

[
  {
    "Compound": "C[C@@H](n1cnnc1-c1cccc(NC(=O)c2cn(C)nc2C(F)F)n1)C(F)(F)F [Example 23]",
    "Endpoint Value": "≤ 100 nM"
  },
  {
    "Compound": "Cc1cncc(-n2cc(C(=O)Nc3cccc(-c4cncn4C(C)C)n3)c(C(F)F)n2)c1 [Example 93]",
    "Endpoint Value": "≤ 100 nM"
  },
  {
    "Compound": "CCn1cc(C(=O)Nc2cccc(-c3nncn3C(C)C(F)(F)F)n2)c(OC)n1 (centres unmarked) [Example 13]",
    "Endpoint Value": "≤ 100 nM"
  },
  {
    "Compound": "C=CCn1cc(C(=O)Nc2cccc(-c3nncn3[C@@H](C)C(F)(F)F)n2)c(OC)n1 [Example 57]",
    "Endpoint Value": "≤ 100 nM"
  },
  {
    "Compound": "CC(C)n1cncc1-c1cccc(NC(=O)c2cn(-c3cncc(C4CC4)c3)nc2C(F)F)n1 [Example 96]",
    "Endpoint Value": "100 to 1000 nM"
  },
  {
    "Compound": "COc1nn(C)cc1C(=O)Nc1cccc(-c2nncn2C2CCN(C(=O)OC(C)(C)C)CC2)n1 [Example 38]",
    "Endpoint Value": "100 to 1000 nM"
  },
  {
    "Compound": "COc1nn(CC(C)C)cc1C(=O)Nc1cccc(-c2nncn2C(C)C(F)(F)F)n1 (centres unmarked) [Example 43]",
    "Endpoint Value": "≤ 100 nM"
  }
]

Note: attention shifts to another entry.
For COc1nn(C)cc1C(=O)Nc1cccc(-c2nncn2[C@@H]2CCCNC2)n1 [Example 39] the compound record lists IC50 as 1000 to 10000 nM

----------
Target: ASK1/MAP3K5 (Homo sapiens, UniProt Q99683)
Test: ASK1/MAP3K5 kinase assay by Reaction Biology Corp. (headed ASK1 TR-FRET Assay)
Type: biochemical
Conditions: 20 μM myelin basic protein, 10 μM ATP, class symbols
Entries and their measured IC50 follow.

Here are 3 molecules together with their reported answers.
[
  {
    "Molecule": "COc1nn(-c2cncc(C#N)c2)cc1C(=O)Nc1cccc(-c2nncn2C(C)C)n1 [Example 69]",
    "IC50": "≤ 0.1 µM"
  },
  {
    "Molecule": "COCCn1cc(C(=O)Nc2cccc(-c3nncn3C3CC3)n2)c(OC)n1 [Example 54]",
    "IC50": "≤ 0.1 µM"
  },
  {
    "Molecule": "CC(C)n1cnnc1-c1cccc(NC(=O)c2cnn(C(C)(C)C)c2)n1 [Example 9]",
    "IC50": "0.1 to 1 µM"
  }
]

For COc1nn(C)cc1C(=O)Nc1cccc(-c2nncn2[C@H]2CCC2(F)F)n1 (single isomer, unassigned) [Example 31] the molecule record lists IC50 as ≤ 0.1 µM

For COc1nn(C)cc1C(=O)Nc1cccc(-c2nncn2C2CC(F)(F)C2)n1 [Example 19] the molecule record lists IC50 as ≤ 0.1 µM

For COc1nn(C)cc1C(=O)Nc1cccc(-c2nncn2C2CCOCC2)n1 [Example 108] the molecule record lists IC50 as 0.1 to 1 µM

For CC(C)n1cnnc1-c1cccc(NC(=O)c2cn(-c3cncc(Br)c3)nc2C(F)F)n1 [Example 74] the molecule record lists IC50 as ≤ 0.1 µM

For COc1nn(-c2cncc(O)c2)cc1C(=O)Nc1cccc(-c2nncn2C(C)C)n1 [Example 70] the molecule record lists IC50 as ≤ 0.1 µM

For CCn1cc(C(=O)Nc2cccc(-c3nncn3[C@@H](C)C(F)(F)F)n2)c(OC)n1 [Example 15] the molecule record lists IC50 as ≤ 0.1 µM
